# System: 855422-203-R-J1-PDC complex spheroid viability
# measurement_protocol: Anticancer human tumor 855422-203-R-J1-PDC patient-derived bladder carcinoma cell line growth inhibition; active = viability on the fitted dose curve at most 10% of control; inactive = the rest
# condition_notes: second compound 1 µM; first compound 0.0316 µM
Possible outcomes: active, inactive

compound | label_class
CC[C@@]1(O)C(=O)OCc2c1cc1n(c2=O)Cc2cc3c(CN(C)C)c(O)ccc3nc2-1 + NC1CC1c1ccc(-c2cccc(O)c2)cc1 | inactive
CC1(C)CCC(CN2CCN(c3ccc(C(=O)NS(=O)(=O)c4ccc(NCC5CCOCC5)c([N+](=O)[O-])c4)c(Oc4cnc5[nH]ccc5c4)c3)CC2)=C(c2ccc(Cl)cc2)C1 + NC1CC1c1ccc(-c2cccc(O)c2)cc1 | inactive
CC(C)CC(NC(=O)CNC(=O)c1cc(Cl)ccc1Cl)B1OC(=O)CC(CC(=O)O)(C(=O)O)O1 (stereo unspecified) + NC1CC1c1ccc(-c2cccc(O)c2)cc1 | active
COc1cc(Nc2ncc3c(n2)-c2ccc(Cl)cc2C(c2c(F)cccc2OC)=NC3)ccc1C(=O)O + NC1CCC(NC2CC2c2ccccc2)CC1 | inactive
CC(C)c1c(-c2ccccc2)nc2c(C#N)c[nH]n2c1=O + NC1CC1c1ccc(-c2cccc(O)c2)cc1 | inactive
COc1ccc([C@@H](O)c2cc(-c3ncnc4cc(N5CCOCC5)ccc34)c(F)cc2Cl)nn1 + NC1CCC(NC2CC2c2ccccc2)CC1 | inactive

----------
# System: 855422-203-R-J1-PDC complex spheroid viability
# measurement_protocol: Anticancer human tumor 855422-203-R-J1-PDC cell line growth inhibition;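 also: drug exposure lasted 7 days starting on day 3 after seeding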;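 as to viability, T/C: luminescence viability as percent of DMSO vehicle wells = 100%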
# condition_notes: second compound 0.316 µM; first compound 0.1 µM; stronger effect = lower value
# From the text: Multicellular complex tumor spheroid response to LSD1 Inhibitor Iadademstat in combination with a variety of drugs and investigational agents in selected tumor cell lines The current study was undertaken to assess response to LSD1 inhibitors in combination with standard-of-care drugs and investigational agents in solid tumor complex spheroid models as well as in the K-562 leukemia. […] Compounds. […] If the clinical Cmax for an agent had not been determined, the highest concentration tested was 10 microM. […]
Threshold 70%. viability, T/C below it: Criterion met. viability, T/C at it or above: Criterion not met.

compound | label_class
CC1COCCN1c1cc(-c2ccnn2C)c2ccnc(-c3ccn[nH]3)c2n1 (stereo not drawn) + NC1CC1c1ccc(-c2cccc(O)c2)cc1 | Criterion met
CC1(C)CCC(CN2CCN(c3ccc(C(=O)NS(=O)(=O)c4ccc(NCC5CCOCC5)c([N+](=O)[O-])c4)c(Oc4cnc5[nH]ccc5c4)c3)CC2)=C(c2ccc(Cl)cc2)C1 + NC1CC1c1ccc(-c2cccc(O)c2)cc1 | Criterion not met
Cn1ncnc1C1c2n[nH]c(=O)c3cc(F)cc(c23)NC1c1ccc(F)cc1 (stereo not drawn) + NC1CCC(NC2CC2c2ccccc2)CC1 | Criterion not met
COc1cc(Nc2ncc3c(n2)-c2ccc(Cl)cc2C(c2c(F)cccc2OC)=NC3)ccc1C(=O)O + NC1CC1c1ccc(-c2cccc(O)c2)cc1 | Criterion met
Nc1ncn(C2CC(O)C(CO)O2)c(=O)n1 (stereo not drawn) + NC1CCC(NC2CC2c2ccccc2)CC1 | Criterion not met
CC1COCCN1c1cc(-c2ccnn2C)c2ccnc(-c3ccn[nH]3)c2n1 (stereo not drawn) + NC1CCC(NC2CC2c2ccccc2)CC1 | Criterion met
O=C(C=Cn1cnc(-c2cc(C(F)(F)F)cc(C(F)(F)F)c2)n1)NNc1cnccn1 + NC1CCC(NC2CC2c2ccccc2)CC1 | Criterion met
CC[C@@]1(O)C(=O)OCc2c1cc1n(c2=O)Cc2cc3c(CN(C)C)c(O)ccc3nc2-1 + NC1CC1c1ccc(-c2cccc(O)c2)cc1 | Criterion met
CC1(C)CCC(CN2CCN(c3ccc(C(=O)NS(=O)(=O)c4ccc(NCC5CCOCC5)c([N+](=O)[O-])c4)c(Oc4cnc5[nH]ccc5c4)c3)CC2)=C(c2ccc(Cl)cc2)C1 + NC1CCC(NC2CC2c2ccccc2)CC1 | Criterion not met
O=C(c1cc(Cc2n[nH]c(=O)c3ccccc23)ccc1F)N1CCN(C(=O)C2CC2)CC1 + NC1CC1c1ccc(-c2cccc(O)c2)cc1 | Criterion not met
CC(C)c1c(-c2ccccc2)nc2c(C#N)c[nH]n2c1=O + NC1CC1c1ccc(-c2cccc(O)c2)cc1 | Criterion not met
O=C(c1cc(Cc2n[nH]c(=O)c3ccccc23)ccc1F)N1CCN(C(=O)C2CC2)CC1 + NC1CCC(NC2CC2c2ccccc2)CC1 | Criterion not met

----------
viability, T/C values by entry
# System: 855422-203-R-J1-PDC complex spheroid viability
# measurement_protocol: Anticancer human tumor 855422-203-R-J1-PDC cell line growth inhibition;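 also: drug exposure lasted 7 days starting on day 3 after seeding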;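 as to viability, T/C: luminescence viability as percent of DMSO vehicle wells = 100%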
# condition_notes: second compound 10 µM; first compound 0.316 µM; stronger effect = lower value
readout_name: viability, T/C (%)

molecule | value_unit | recorded_number
CC1(C)CCC(CN2CCN(c3ccc(C(=O)NS(=O)(=O)c4ccc(NCC5CCOCC5)c([N+](=O)[O-])c4)c(Oc4cnc5[nH]ccc5c4)c3)CC2)=C(c2ccc(Cl)cc2)C1 + NC1CCC(NC2CC2c2ccccc2)CC1 | % | 92.4
CC1COCCN1c1cc(C2(S(C)(=N)=O)CC2)nc(-c2ccnc3[nH]ccc23)n1 (stereo not drawn) + NC1CCC(NC2CC2c2ccccc2)CC1 | % | 89.8
CC1(C)CCC(CN2CCN(c3ccc(C(=O)NS(=O)(=O)c4ccc(NCC5CCOCC5)c([N+](=O)[O-])c4)c(Oc4cnc5[nH]ccc5c4)c3)CC2)=C(c2ccc(Cl)cc2)C1 + NC1CC1c1ccc(-c2cccc(O)c2)cc1 | % | 82.6

----------
# System: 855422-203-R-J1-PDC complex spheroid viability
# measurement_protocol: Anticancer human tumor 855422-203-R-J1-PDC cell line growth inhibition;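 also: drug exposure lasted 7 days starting on day 3 after seeding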;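 as to viability, T/C: luminescence viability as percent of DMSO vehicle wells = 100%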
# condition_notes: second compound 0.316 µM; first compound 0.316 µM; stronger effect = lower value
viability, T/C values by entry

molecule | viability, T/C
CC1COCCN1c1cc(C2(S(C)(=N)=O)CC2)nc(-c2ccnc3[nH]ccc23)n1 (configuration not stated) + NC1CCC(NC2CC2c2ccccc2)CC1 | 102%
O=C(C=Cn1cnc(-c2cc(C(F)(F)F)cc(C(F)(F)F)c2)n1)NNc1cnccn1 + NC1CC1c1ccc(-c2cccc(O)c2)cc1 | 28.2%
CC1COCCN1c1cc(-c2ccnn2C)c2ccnc(-c3ccn[nH]3)c2n1 (configuration not stated) + NC1CCC(NC2CC2c2ccccc2)CC1 | 39.5%
CC1COCCN1c1cc(-c2ccnn2C)c2ccnc(-c3ccn[nH]3)c2n1 (configuration not stated) + NC1CC1c1ccc(-c2cccc(O)c2)cc1 | 35%
Nc1ncn(C2CC(O)C(CO)O2)c(=O)n1 (configuration not stated) + NC1CCC(NC2CC2c2ccccc2)CC1 | 83%
O=C(c1cc(Cc2n[nH]c(=O)c3ccccc23)ccc1F)N1CCN(C(=O)C2CC2)CC1 + NC1CCC(NC2CC2c2ccccc2)CC1 | 83.4%
O=C(c1cc(Cc2n[nH]c(=O)c3ccccc23)ccc1F)N1CCN(C(=O)C2CC2)CC1 + NC1CC1c1ccc(-c2cccc(O)c2)cc1 | 97.2%

----------
# Tested on: 855422-203-R-J1-PDC complex spheroid viability
# measurement_protocol: Anticancer human tumor 855422-203-R-J1-PDC cell line growth inhibition;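 also: drug exposure lasted 7 days starting on day 3 after seeding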;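 as to viability, T/C: luminescence viability as percent of DMSO vehicle wells = 100%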
# condition_notes: second compound 3.16 µM; first compound 0.000949 µM; stronger effect = lower value

compound | system_tested | viability, T/C [%]
Nc1ncn(C2CC(O)C(CO)S2)c(=O)n1 (stereo unspecified) + NC1CCC(NC2CC2c2ccccc2)CC1 | 855422-203-R-J1-PDC complex spheroid viability | 92.4
Nc1ccn(C2OC(CO)C(O)C2(F)F)c(=O)n1 (stereo unspecified) + NC1CCC(NC2CC2c2ccccc2)CC1 | 855422-203-R-J1-PDC complex spheroid viability | 79.2
CCc1c2c(nc3ccc(O)cc13)-c1cc3c(c(=O)n1C2)COC(=O)[C@]3(O)CC + NC1CCC(NC2CC2c2ccccc2)CC1 | 855422-203-R-J1-PDC complex spheroid viability | 22.1
CCc1c2c(nc3ccc(O)cc13)-c1cc3c(c(=O)n1C2)COC(=O)[C@]3(O)CC + NC1CC1c1ccc(-c2cccc(O)c2)cc1 | 855422-203-R-J1-PDC complex spheroid viability | 15.7
Nc1ccn(C2OC(CO)C(O)C2(F)F)c(=O)n1 (stereo unspecified) + NC1CC1c1ccc(-c2cccc(O)c2)cc1 | 855422-203-R-J1-PDC complex spheroid viability | 76.8
Nc1ncn(C2CC(O)C(CO)S2)c(=O)n1 (stereo unspecified) + NC1CC1c1ccc(-c2cccc(O)c2)cc1 | 855422-203-R-J1-PDC complex spheroid viability | 81.9

----------
# Tested on: 855422-203-R-J1-PDC complex spheroid viability
# measurement_protocol: Anticancer human tumor 855422-203-R-J1-PDC cell line growth inhibition;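 also: drug exposure lasted 7 days starting on day 3 after seeding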
# condition_notes: curve of first compound; second compound 10 µM
# Source text: Multicellular complex tumor spheroid response to LSD1 Inhibitor Iadademstat in combination with a variety of drugs and investigational agents in selected tumor cell lines The current study was undertaken to assess response to LSD1 inhibitors in combination with standard-of-care drugs and investigational agents in solid tumor complex spheroid models as well as in the K-562 leukemia. […] Compounds. […] If the clinical Cmax for an agent had not been determined, the highest concentration tested was 10 microM. […]
IC50 values by entry

compound | IC50
O=C(c1cc(Cc2n[nH]c(=O)c3ccccc23)ccc1F)N1CCN(C(=O)C2CC2)CC1 + NC1CCC(NC2CC2c2ccccc2)CC1 | > 10000 nM
CC1COCCN1c1cc(-c2ccnn2C)c2ccnc(-c3ccn[nH]3)c2n1 (configuration not stated) + NC1CC1c1ccc(-c2cccc(O)c2)cc1 | 77.5 nM
CC1COCCN1c1cc(C2(S(C)(=N)=O)CC2)nc(-c2ccnc3[nH]ccc23)n1 (configuration not stated) + NC1CCC(NC2CC2c2ccccc2)CC1 | 2440 nM
COc1ccc([C@@H](O)c2cc(-c3ncnc4cc(N5CCOCC5)ccc34)c(F)cc2Cl)nn1 + NC1CCC(NC2CC2c2ccccc2)CC1 | 3230 nM
COc1cc(C2c3cc4c(cc3C(OC3OC5COC(C)OC5C(O)C3O)C3COC(=O)C23)OCO4)cc(OC)c1O (configuration not stated) + NC1CCC(NC2CC2c2ccccc2)CC1 | 130 nM
Nc1ncn(C2CC(O)C(CO)S2)c(=O)n1 (configuration not stated) + NC1CCC(NC2CC2c2ccccc2)CC1 | > 300 nM
CC(C)CC(NC(=O)C(Cc1ccccc1)NC(=O)c1cnccn1)B(O)O (configuration not stated) + NC1CC1c1ccc(-c2cccc(O)c2)cc1 | 0.578 nM
